Test: Primary qHTS for delayed death inhibitors of the malarial parasite plastid, 48 hour incubation
Settings: P. falciparum luciferase growth in erythrocytes; series mostly up to 28.7 µM
In all, about 310,000 compounds went through this assay and about 18,000 (5.8%) were called active. Not shown: some 22% with an inconclusive outcome. The call rests on the fitted dose curve; in most records, active means well fitted inhibition curve with a large enough effect; inconclusive means small, poorly fitted or top-dose-only effect, or another doubt; inactive means no such curve, though single readings can be large or run the other way. This is one part of a sample in which actives are shown more often than they occur.
Outcomes: y = active, n = inactive

>  <COMPOUND>
COc1ccccc1C(=O)Nc1ccc(OCC(=O)N2CCCCC2)cc1

>  <ASSIGNED CLASS>
n

$$$$
>  <COMPOUND>
COc1ccc(NC2CCCN(C(=O)c3ccncc3)C2)cc1 (stereo not drawn)

>  <ASSIGNED CLASS>
n

$$$$
>  <COMPOUND>
Cc1cccc(C(=O)N2CCCC(Nc3ccc(C(C)C)cc3)C2)n1 (stereo not drawn)

>  <ASSIGNED CLASS>
n

$$$$
>  <COMPOUND>
Cc1cc(Nc2ccc(Cl)cc2)nc(N2CCOCC2)n1

>  <ASSIGNED CLASS>
n

$$$$
>  <COMPOUND>
Cc1c(C(=O)N2CCN(c3ccc(F)cc3)CC2)oc2c1C(=O)CCC2

>  <ASSIGNED CLASS>
n

$$$$
>  <COMPOUND>
Cc1ccc(CN(CC(=O)NC2CCCCC2)C(=O)c2csnn2)cc1

>  <ASSIGNED CLASS>
n

$$$$
>  <COMPOUND>
Cn1c2ccccc2c2c(C(=O)N3CCN(c4ccc(F)cc4)CC3)cn(C3CCCC3)c(=O)c21

>  <ASSIGNED CLASS>
y

$$$$
>  <COMPOUND>
CCCCCCC(=O)Nc1nc(C)c(-c2csc(Nc3cccc(OC)c3)n2)s1

>  <ASSIGNED CLASS>
y

$$$$
>  <COMPOUND>
O=C(O)c1ccccc1CSc1nc2ccccc2s1

>  <ASSIGNED CLASS>
n

$$$$
>  <COMPOUND>
CCc1ccc(-c2nn(-c3ccccc3)cc2CSC(=N)N)cc1

>  <ASSIGNED CLASS>
y

$$$$
>  <COMPOUND>
Cc1ccc(C)c(S(=O)(=O)Nc2cccc(-n3cnnn3)c2)c1

>  <ASSIGNED CLASS>
n

$$$$
>  <COMPOUND>
CC(C)N(C(=O)COC(=O)c1ccccc1C(=O)N1CCN(c2ccc(F)cc2)CC1)C(C)C

>  <ASSIGNED CLASS>
n

$$$$
>  <COMPOUND>
COC(=O)c1cnc(Nc2cc(C)ccc2OC)c2ccccc12

>  <ASSIGNED CLASS>
y

$$$$
>  <COMPOUND>
Brc1ccccc1/C=N/Nc1nc2ccccc2o1

>  <ASSIGNED CLASS>
n

$$$$
>  <COMPOUND>
C=CCOc1ccc(/C=C/C(=O)OCC(=O)NC(C)c2ccc(F)cc2)cc1 (stereo not drawn)

>  <ASSIGNED CLASS>
n

$$$$
>  <COMPOUND>
COc1ccccc1CCNC(=O)c1c(C)nn(CC(C)C)c1Cl

>  <ASSIGNED CLASS>
n

$$$$
>  <COMPOUND>
Cc1cccc(NC(=O)c2cccc(C(F)(F)F)c2)c1

>  <ASSIGNED CLASS>
n

$$$$
>  <COMPOUND>
Cc1cc(Nc2ccc(C(=O)N3CCCCC3)cc2)c2cccc(C)c2n1

>  <ASSIGNED CLASS>
n

$$$$
>  <COMPOUND>
O=C(COC(=O)CNS(=O)(=O)c1ccc(F)c(F)c1F)NC1CCCC1

>  <ASSIGNED CLASS>
n

$$$$
>  <COMPOUND>
CCCn1nc(NS(=O)(=O)c2ccccc2)c2cc3cc(C)ccc3nc21

>  <ASSIGNED CLASS>
n

$$$$
>  <COMPOUND>
CCCCCCC(=O)Nc1nc(C)c(-c2csc(Nc3cc(Cl)ccc3OC)n2)s1

>  <ASSIGNED CLASS>
y

$$$$
>  <COMPOUND>
CC(C)c1ccc(NC2CCCN(C(=O)c3ccncc3)C2)cc1 (stereo not drawn)

>  <ASSIGNED CLASS>
y

$$$$
>  <COMPOUND>
CC(=O)Nc1ccc(-c2csc(NC(=O)Nc3ccccc3)n2)cc1

>  <ASSIGNED CLASS>
n

$$$$

// provenance: PubChem BioAssay AID504832
